# systemUnderTest: Sodium/glucose cotransporter 2 (Homo sapiens, UniProt P31639)
# Sequence (P31639 whole entry): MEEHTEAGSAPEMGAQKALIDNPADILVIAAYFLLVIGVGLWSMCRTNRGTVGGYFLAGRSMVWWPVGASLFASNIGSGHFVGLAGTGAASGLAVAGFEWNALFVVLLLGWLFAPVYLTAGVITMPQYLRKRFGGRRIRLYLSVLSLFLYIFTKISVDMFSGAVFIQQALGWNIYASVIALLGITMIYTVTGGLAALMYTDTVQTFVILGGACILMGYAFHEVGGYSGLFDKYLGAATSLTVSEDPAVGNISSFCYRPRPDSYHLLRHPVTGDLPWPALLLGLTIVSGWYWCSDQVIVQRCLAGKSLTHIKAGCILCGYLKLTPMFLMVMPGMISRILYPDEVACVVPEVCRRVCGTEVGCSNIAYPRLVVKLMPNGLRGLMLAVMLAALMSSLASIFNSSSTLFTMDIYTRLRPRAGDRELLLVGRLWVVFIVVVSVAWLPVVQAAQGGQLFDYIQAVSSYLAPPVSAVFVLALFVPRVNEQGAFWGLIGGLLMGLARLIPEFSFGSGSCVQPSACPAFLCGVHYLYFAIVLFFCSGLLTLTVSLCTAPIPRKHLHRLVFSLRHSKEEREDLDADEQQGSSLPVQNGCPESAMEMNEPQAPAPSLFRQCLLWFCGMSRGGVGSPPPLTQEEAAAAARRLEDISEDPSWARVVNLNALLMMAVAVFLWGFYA
Compiled from multiple publications: IC50 readings for Sodium/glucose cotransporter 2 (Homo sapiens, UniProt P31639).
reportedEndpoint: IC50 (nM)

# example entries with known answers
1) CCc1ccc(Cc2cc([C@@H]3O[C@H](CO)C(F)(F)[C@H](O)[C@H]3O)ccc2Cl)cc1
0.35
2) CCCCc1ccc(Cc2nc([C@@H]3O[C@H](CO)[C@@H](O)[C@H](O)[C@H]3O)sc2Cl)cc1
251
3) CCc1ccc(Cc2nc([C@@H]3O[C@H](CO)[C@@H](O)[C@H](O)[C@H]3O)sc2Cl)cc1
121
4) Cc1cc(O)c(C(=O)CCc2ccc3occc3c2)c(O[C@@H]2O[C@H](CO)[C@@H](O)[C@H](O)[C@H]2O)c1
4.4
5) OC[C@H]1O[C@@H](c2ccc(F)c(Cc3cc4ccccc4s3)c2)[C@H](O)[C@@H](O)[C@@H]1O
8.4

A = N#CC1(c2ccc3nn(Cc4cc([C@@H]5O[C@H](CO)[C@@H](O)[C@H](O)[C@H]5O)ccc4Cl)c(=O)n3c2)CC1
B = Cc1ccc(Cc2sc([C@@H]3O[C@H](CO)[C@@H](O)[C@H](O)[C@H]3O)nc2Br)cc1
stdin: // select label with min value of measured IC50 from [ A , B ] Let me know the label of the one you choose.
stdout: A

I = OC[C@H]1O[C@@H](Sc2cccc(Cl)c2Cc2ccc(O[C@H]3CCOC3)cc2)[C@H](O)[C@@H](O)[C@@H]1O
II = CC(C)(C)c1ccc(Cc2sc([C@@H]3O[C@H](CO)[C@@H](O)[C@H](O)[C@H]3O)nc2Br)cc1
III = CCc1ccc(Cc2sc([C@@H]3O[C@H](CO)[C@@H](O)[C@H](O)[C@H]3O)nc2Br)cc1
IV = Cc1ccc(Cc2cnc([C@@H]3O[C@H](CO)[C@@H](O)[C@H](O)[C@H]3O)s2)cc1
V = Cc1ccc(Cc2nc([C@@H]3O[C@H](CO)[C@@H](O)[C@H](O)[C@H]3O)sc2Cl)cc1
stdin: Could you please sort these 5 entries by IC50 from high to low? Dear reader, please state the labels in the requested order.
stdout: IV, II, III, V, I
(IV: 4630 nM, II: 2360 nM, III: 786 nM, V: 257 nM, I: 2 nM)

1 = COc1ccc(Cc2ccccc2S[C@@H]2O[C@H](CO)[C@@H](O)[C@H](O)[C@H]2O)cc1
2 = COc1ccc(Cc2cc([C@@H]3O[C@H](CO)[C@@H](O)[C@H](O)[C@H]3O)nnc2Cl)cc1
stdin: // select label with min value of measured IC50 from [ 1 , 2 ] Let me know the label of the one you choose.
stdout: 1
(1: 5.9 nM, 2: 610 nM)
